- ASSAY SUMMARY: PK assessment: plasma tinostamustine and metabolites M2 and M8, non-compartmental analysis and population PK model
- Assay type: in vivo, human
- DETAILS: human, plasma, intravenous, 60 mg/m^2, 60 mg/m^2, infusion 60 minutes, day one, Mean (SD)

| COMPOUND | Cmax, ng/mL |
| --- | --- |
| Cn1c(CCCCCCC(=O)NO)nc2cc(N(CCCl)CCCl)ccc21 [tinostamustine] | 640 |

----------
- ASSAY SUMMARY: PK assessment: plasma tinostamustine and metabolites M2 and M8, non-compartmental analysis and population PK model
- Assay type: in vivo, human
- DETAILS: human, plasma, intravenous, population PK, two-compartmental model, 36 patients; read-out: Central volume of distribution

| SMILES DATA | Vd / L |
| --- | --- |
| Cn1c(CCCCCCC(=O)NO)nc2cc(N(CCCl)CCCl)ccc21 | 20.6 |

----------
- ASSAY SUMMARY: PK assessment: plasma tinostamustine and metabolites M2 and M8, non-compartmental analysis and population PK model
- Type: in vivo, human
- DETAILS: human, plasma, intravenous, 20 mg/m^2, 20 mg/m^2, infusion 60 minutes, day one, Mean (SD)
METRIC NAME: Cmax

| SMILES DATA | METRIC NAME | VALUE REPORTED |
| --- | --- | --- |
| Cn1c(CCCCCCC(=O)NO)nc2cc(N(CCCl)CCCl)ccc21 | Cmax | 241 ng/mL |

----------
- ASSAY SUMMARY: PK assessment: plasma tinostamustine and metabolites M2 and M8, non-compartmental analysis and population PK model
- Type: in vivo, human
- DETAILS: human, plasma, intravenous, 100 mg/m^2, 100 mg/m^2, infusion 60 minutes, day one, Mean (SD)
METRIC NAME: AUC (ng·h/mL)

| COMPOUND | METRIC NAME | VALUE REPORTED |
| --- | --- | --- |
| Cn1c(CCCCCCC(=O)NO)nc2cc(N(CCCl)CCCl)ccc21 [tinostamustine] | AUC | 1660 |

----------
- ASSAY SUMMARY: PK assessment: plasma tinostamustine and metabolites M2 and M8, non-compartmental analysis and population PK model
- Type: in vivo, human
- DETAILS: human, plasma, intravenous, 120 mg/m^2, 120 mg/m^2, infusion 60 minutes, day one, Mean (SD)
METRIC NAME: Tmax (min)

| SMILES DATA | VALUE REPORTED |
| --- | --- |
| Cn1c(CCCCCCC(=O)NO)nc2cc(N(CCCl)CCCl)ccc21 | 48 |

----------
- ASSAY SUMMARY: PK assessment: plasma tinostamustine and metabolites M2 and M8, non-compartmental analysis and population PK model
- Assay type: in vivo, human
- DETAILS: human, plasma, intravenous, 100 mg/m^2, 100 mg/m^2, infusion 60 minutes, day one, Mean (SD)
METRIC NAME: Cmax (ng/mL)

| COMPOUND | METRIC NAME | VALUE REPORTED |
| --- | --- | --- |
| Cn1c(CCCCCCC(=O)NO)nc2cc(N(CCCl)CCCl)ccc21 [tinostamustine] | Cmax | 1960 |

----------
- ASSAY SUMMARY: PK assessment: plasma tinostamustine and metabolites M2 and M8, non-compartmental analysis and population PK model
- Assay type: in vivo, human
- DETAILS: human, plasma, intravenous, 80 mg/m^2, 80 mg/m^2, infusion 60 minutes, day one, Mean (SD)

| SMILES DATA | Cmax / ng/mL |
| --- | --- |
| Cn1c(CCCCCCC(=O)NO)nc2cc(N(CCCl)CCCl)ccc21 | 1060 |
